# System: Mus musculus
# assay text: In vivo antimalarial activity in mice (Mus musculus) against chloroquine-resistant Plasmodium yoelii species. NS after subcutaneous administration
# Format: functional
Mark each entry true (1) if its ED90 sits below 8 mg kg-1 5day-1, and false (0) for all others.

| compound | assigned category |
| --- | --- |
| C[C@@H]1CC[C@H]2[C@@H](C)C(=O)O[C@@H]3O[C@@]4(C)CC[C@@H]1[C@]32OO4 | false (0) |
| CC1(OCc2ccccc2)CCC2CC1OO[C@]2(C)CS(=O)(=O)c1ccccc1 (stereo partly specified) | true (1) |
| CCN(CC)CCCC(C)Nc1ccnc2cc(Cl)ccc12 (stereo unspecified) | false (0) |
| CC1(OCc2ccccc2)CCC2CC1OO[C@@]2(C)CS(=O)(=O)c1ccccc1 (stereo partly specified) | true (1) |
| CC(=O)OC1(C)CCC2CC1OO[C@@]2(C)CS(=O)(=O)c1ccccc1 (stereo in doubt; 39a) | false (0) |
| COc1ccc(COC2(C)CCC3CC2OO[C@@]3(C)CS(=O)(=O)c2ccccc2)cc1 (stereo partly specified) | false (0) |
